Just for reference, patent US10793568B2 is where these values come from.

# maps each entry to its Emax
MEASUREMENT_TARGET: human Farnesoid X receptor ligand-binding domain/Gal4 DNA binding domain chimera (Homo sapiens (Human), UniProt Q96RI1)
Sequence (Q96RI1 262-486, change not shown): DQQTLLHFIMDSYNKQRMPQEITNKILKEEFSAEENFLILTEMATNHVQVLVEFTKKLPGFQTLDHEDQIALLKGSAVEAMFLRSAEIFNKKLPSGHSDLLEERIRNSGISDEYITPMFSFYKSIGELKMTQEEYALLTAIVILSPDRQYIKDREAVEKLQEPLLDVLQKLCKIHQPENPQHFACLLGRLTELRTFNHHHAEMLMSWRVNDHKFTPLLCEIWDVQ
Sequence (P04386 1-147 partner): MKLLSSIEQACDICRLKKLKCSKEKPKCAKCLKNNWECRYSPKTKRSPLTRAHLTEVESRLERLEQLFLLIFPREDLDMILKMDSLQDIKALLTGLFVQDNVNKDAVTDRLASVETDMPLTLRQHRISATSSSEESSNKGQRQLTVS
METHOD_NOTES: Cell-based assay of FXR activation (FXR-UAS-bla HEK 293T beta-lactamase reporter)
MEASUREMENT_CONDITIONS: HEK-293T; extent of activation relative to GW4064; cellular FXR beta-lactamase reporter assay; read-out: % Efficacy
Method: FXR activation was measured using a cell line and procedure obtained from Life Technologies (Cat # K1691). FXR-UAS-bla HEK 293T cells contain a human Farnesoid X receptor ligand-binding domain/Gal4 DNA binding domain chimera stably integrated into the CellSensor® UAS-bla HEK 293T cell line. […] Activation of FXR by bound ligands results in transcriptional activation of the beta-lactamase reporter gene, which is detected via assay of beta-lactamase activity. […]

# COMPOUND, Emax, %
rows = [
    ("O=C(O)c1cc(F)c2nc(N3C[C@H]4C[C@@H]3C[C@H]4OCc3c(-c4c(Cl)cccc4Cl)noc3C3CC3)sc2c1 [Compound I-41]", 40),
    ("O=C(O)CNC(=O)c1ccc(N2C[C@@H]3C[C@H]2C[C@H]3OCc2c(-c3c(Cl)cccc3Cl)noc2C2CC2)cc1 [Compound I-165]", 107),
    ("O=C(NS(=O)(=O)CCC1CCOC1)c1ccc(N2C(=O)[C@@H]3C[C@H]2C[C@H]3OCc2c(-c3c(Cl)cccc3Cl)noc2C2CC2)cc1F (stereo partly drawn) [Compound I-336]", 125),
    ("Cc1cccc(Cl)c1-c1noc(C2CC2)c1CO[C@@H]1C[C@@H]2C[C@H]1CN2c1ccc(C(=O)O)cc1F [Compound I-113]", 101),
    ("Fc1cc(CCc2nn[nH]n2)ccc1N1C[C@@H]2C[C@H]1C[C@H]2OCc1c(-c2c(Cl)cccc2Cl)noc1C1CC1 [Compound I-162]", 105),
    ("CCc1cc(N2C(=O)[C@@H]3C[C@H]2C[C@H]3OCc2c(-c3c(Cl)cccc3Cl)noc2C2CC2)ccc1C(=O)O [Compound I-318]", 116),
]
